# ASSAYED TARGET: human plasmin (Homo sapiens, UniProt P00747)
# Sequence (P00747 581-810 limits assumed): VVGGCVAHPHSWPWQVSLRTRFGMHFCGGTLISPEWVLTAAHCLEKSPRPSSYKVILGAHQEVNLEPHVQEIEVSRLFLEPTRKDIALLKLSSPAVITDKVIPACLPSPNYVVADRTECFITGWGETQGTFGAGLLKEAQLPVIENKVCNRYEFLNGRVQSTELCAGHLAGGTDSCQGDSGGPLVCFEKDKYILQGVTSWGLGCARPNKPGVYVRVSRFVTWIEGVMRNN
# Sequence (P00747 97-580 partner limits assumed): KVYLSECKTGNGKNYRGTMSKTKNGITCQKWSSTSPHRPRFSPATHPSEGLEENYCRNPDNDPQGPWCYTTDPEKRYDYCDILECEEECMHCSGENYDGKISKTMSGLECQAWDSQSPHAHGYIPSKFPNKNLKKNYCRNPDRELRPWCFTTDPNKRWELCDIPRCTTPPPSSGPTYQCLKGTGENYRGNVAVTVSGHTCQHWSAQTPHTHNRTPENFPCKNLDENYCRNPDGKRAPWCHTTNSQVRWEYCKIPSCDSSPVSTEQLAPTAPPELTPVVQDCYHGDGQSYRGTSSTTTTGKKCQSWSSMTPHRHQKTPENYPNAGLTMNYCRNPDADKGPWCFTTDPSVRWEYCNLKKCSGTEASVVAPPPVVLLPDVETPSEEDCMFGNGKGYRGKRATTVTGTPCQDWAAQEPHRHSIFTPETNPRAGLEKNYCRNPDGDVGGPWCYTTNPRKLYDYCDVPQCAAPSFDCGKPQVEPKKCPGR
# ASSAY EXPLANATION: Antiplasmin activity: inhibition of S-2251 decomposition
# Type: biochemical
# CONDITIONS USED: Table 2; substrate S-2251, pH 7.4, 37°C; read-out: Plasmin S-2251 (concentration I₅₀)
pIC50: −log10 of the molar value.
READOUT KIND: pIC50

| CPD SMILES | ASSAYED TARGET | ENDPOINT RESULT |
| --- | --- | --- |
| COc1ccc(NC(=O)[C@H](Cc2ccc(OCc3ccccc3)cc2)NC(=O)c2ccc(NC(=N)N)cc2)cn1 | human plasmin (Homo sapiens, UniProt P00747) | 3.80 |

P = CC(=O)c1ccc(NC(=O)[C@H](Cc2ccc(OCc3ccccc3)cc2)NC(=O)c2ccc(C(=N)N)cc2)cc1
Q = NCCCCC(=O)N[C@@H](Cc1ccccc1)C(=O)Nc1ccc(C(=O)c2ccccc2)cc1
R = Cc1ccc(NC(=O)[C@H](Cc2ccc(OCc3ccccc3)cc2)NC(=O)c2ccc(NC(=N)N)cc2)cc1C
Rank the items in ascending order with respect to pIC50. A complete answer lists every label in the requested sequence.
Q, R, P
